Reported fraction ligated is given for each of the following variants.
B1: minF1; the commonest letter at each place (parent)
chain: GAGACCGCAACTGAAAAGTTGTTATCAGAAATGGATGGGTTGAATTTCTGCACGTAGAAGCAAAAGGC

- Variants of: B1
- PROTOCOL_SUMMARY: fraction ligated after 30 min (ligated reads / total reads); higher = more ligase activity
- PARTICULARS: with F1*subA RNA substrate (template-directed ligation), 42 °C

Example entries and their recorded answers appear below.
[[record]]
mutant_code = "A29T G42A"
result = 0.269

[[record]]
mutant_code = "A24T A35C"
result = 0.0024

[[record]]
mutant_code = "A29G T36C"
result = 0.0189

[[record]]
mutant_code = "A24T A27T"
result = 0.171

[[record]]
mutant_code = "A31C T32G"
result = 0.0132


Tell me measured fraction ligated for C26A A31T please.
0.0701

Tell me measured fraction ligated for T25A A44G please.
0.00172

Tell me measured fraction ligated for A35C A43G please.
0.00754
